- Tested on: BDF1 mice, P388 leukemia ip, median survival T/C
- Assay Explanation: NCI In Vivo Anticancer Drug Screen. Data for tumor model P388 Leukemia (intraperitoneal) in B6D2F1 (BDF1) mice
- Test Context: endpoint: median survival time; dose: 100.0 mg/kg/injection; schedule: Q01DX005 (ip); vehicle: saline with Tween-80; higher = longer survival
Inconclusive results and toxic doses are left out.
Measure Name: T/C

>>> result("COC(=O)C(CCSC)NC(=O)CNC(=O)OC(C)(C)C (centres undefined)")
"105 % of control"
>>> result("O=C(CSc1nc2ccccc2s1)c1sc2sc3ccccc3[n+]2c1[O-]")
"97 % of control"
>>> result("O=[N+]([O-])c1ccc(/C=C/c2cccc(/C=C/c3ccc([N+](=O)[O-])cc3)[n+]2[O-])cc1")
"94 % of control"

Next item in the queue.
Query: Please report the recorded T/C for O=C(Nc1cccc2c(OC(=O)C(Cl)Cl)c(N=Nc3ccc(S(=O)(=O)Nc4nccs4)cc3)cc(N=Nc3ccc(S(=O)(=O)Nc4nccs4)cc3)c12)C(Cl)Cl (tested in a mixture with another compound) .
Reply: 103 % of control

====

- Test system: BDF1 mice, P388 leukemia ip, median survival T/C
- Assay Explanation: NCI In Vivo Anticancer Drug Screen. Data for tumor model P388 Leukemia (intraperitoneal) in B6D2F1 (BDF1) mice
- Test Context: endpoint: median survival time; dose: 200.0 mg/kg/injection; schedule: Q01DX009 (ip); vehicle: other; higher = longer survival
Toxic doses and inconclusive results are not listed.
Measure Name: T/C

Illustrative cases are given below, each with its answer.
>>> result("Cc1ccc(CNc2ccc(F)cc2)cc1")
"95 % of control"
>>> result("COP(=O)(O)/C(C)=N/NS(=O)(=O)c1ccc(C)cc1")
"100 % of control"
>>> result("OCC1(O)CC(O)C(O)(CO)CC1O (stereo not drawn)")
"118 % of control"

Query: Please report the recorded T/C for CCCCCCCCCCC(=O)CCCCC .
Reply: 100 % of control

Query: Please report the recorded T/C for CC(=O)c1cnn(-c2ccccc2)c1C .
Reply: 100 % of control

Query: Please report the recorded T/C for O=[N+]([O-])c1cccc(OCCCOc2ccccc2)c1 .
Reply: 100 % of control

Query: Please report the recorded T/C for CC1(C2CC(=O)c3c(O)ccc(O)c3C2)OCCO1 (stereo not drawn) .
Reply: 98 % of control

Query: Please report the recorded T/C for CC1(c2cccc([N+](=O)[O-])c2)OCCO1 .
Reply: 100 % of control

====

- System: BDF1 mice, P388 leukemia ip, median survival T/C
- Assay Explanation: NCI In Vivo Anticancer Drug Screen. Data for tumor model P388 Leukemia (intraperitoneal) in B6D2F1 (BDF1) mice
- Test Context: endpoint: median survival time; dose: 200.0 mg/kg/injection; schedule: Q01DX009 (ip); vehicle: saline with Tween-80; higher = longer survival
Inconclusive results and toxic doses are left out.
Measure Name: T/C

>>> result("N#Cc1cccc(O)c1")
"109 % of control"
>>> result("CS(=O)(=O)CC(O)(c1ccccc1)c1ccncc1 (stereo unspecified)")
"98 % of control"
>>> result("Cc1cccc(-n2c(CC#N)n[nH]c2=S)c1")
"100 % of control"

Query: Please report the recorded T/C for C[C@]12CC[C@H](O)C[C@@H]1CC[C@@H]1[C@@H]2C(=O)C[C@@]2(C)[C@H]1CC[C@]2(O)C(=O)CBr .
Reply: 118 % of control

Query: Please report the recorded T/C for CCOC(=O)Cc1csc(NNC(=O)c2ccccc2)n1 .
Reply: 101 % of control

Query: Please report the recorded T/C for COc1cc2c(cc1OC)C(c1ccc(N=Cc3ccc(N(C)C)cc3)cc1)N(C(=S)Nc1cc(Cl)ccc1Cl)CC2 (stereo unspecified) .
Reply: 89 % of control

====

- Tested on: BDF1 mice, P388 leukemia ip, median survival T/C
- Assay Explanation: NCI In Vivo Anticancer Drug Screen. Data for tumor model P388 Leukemia (intraperitoneal) in B6D2F1 (BDF1) mice
- Test Context: endpoint: median survival time; dose: 50.0 mg/kg/injection; schedule: Q04DX003 (ip); vehicle: saline with Tween-80
Inconclusive results and toxic doses are left out. The calls were made as follows: active = survival T/C of 150% or more; inactive = T/C below 125% in these data.
Result category, one only: 1 (yes) for active, 0 (no) for inactive

>>> cat("CCCNC1(C(N)=O)CCN(Cc2ccccc2)CC1")
"0 (no)"
>>> cat("C/C(=N/N)c1ccc(Br)cc1")
"0 (no)"

Query: # outcome recorded in this test, key = Cc1cc2c(cc1C)C(=O)C(N1CCN(C)CC1)CCC2 (stereo not given)
Reply: 0 (no)

Query: # outcome recorded in this test, key = O=NN(CCCl)C(=O)Nc1c[nH]c(=O)[nH]c1=O
Reply: 1 (yes)

Query: # outcome recorded in this test, key = CC(C)(C)Cc1cc(O)c2c(c1O)C(=O)c1ccccc1C2=O
Reply: 0 (no)

Query: # outcome recorded in this test, key = CC(=O)CC(Cl)(C(F)(F)F)C(F)(F)F
Reply: 0 (no)

Query: # outcome recorded in this test, key = COc1cc[n+]([O-])cc1/C=C/c1c[n+]([O-])ccc1OC
Reply: 0 (no)

Query: # outcome recorded in this test, key = CC(=O)OC1CC2CCC1(C)C2(C)C (stereo not given)
Reply: 0 (no)

Query: # outcome recorded in this test, key = CSc1cc(-c2ccc(Cl)cc2)s[s+]1
Reply: 0 (no)

Query: # outcome recorded in this test, key = O=C1c2sccc2-c2cccc3cccc1c23
Reply: 0 (no)

Query: # outcome recorded in this test, key = COc1cc(C=Nc2cc(Cl)c(O)c(Cl)c2)ccc1N(CCCl)CCCl
Reply: 0 (no)

Query: # outcome recorded in this test, key = COC(C(OC)N1CCOCC1)N1CCOCC1 (stereo not given)
Reply: 0 (no)

Query: # outcome recorded in this test, key = COc1cc(C=O)cc(I)c1O
Reply: 0 (no)

Query: # outcome recorded in this test, key = NC(CSC(c1ccccc1)(c1ccccc1)c1ccc(Br)cc1)C(=O)O (stereo not given)
Reply: 1 (yes)

Query: # outcome recorded in this test, key = CC1CCC(NC2=NCCO2)C(C)C1 (stereo not given)
Reply: 0 (no)

Query: # outcome recorded in this test, key = CC(Br)C(=O)NC(CC(N)=O)C(=O)O (stereo not given)
Reply: 0 (no)

Query: # outcome recorded in this test, key = O=C(O)c1ccc(Cl)cc1Nc1ccc(Cl)cc1
Reply: 0 (no)

Query: # outcome recorded in this test, key = C=CC(=O)Oc1ccc(Cl)cc1
Reply: 0 (no)

====

- System: BDF1 mice, P388 leukemia ip, median survival T/C
- Assay Explanation: NCI In Vivo Anticancer Drug Screen. Data for tumor model P388 Leukemia (intraperitoneal) in B6D2F1 (BDF1) mice
- Test Context: endpoint: median survival time; dose: 200.0 mg/kg/injection; schedule: Q04DX003 (ip); vehicle: saline; higher = longer survival
Toxic doses and inconclusive results are not listed.
This section presents molecules with their documented T/C values.

Illustrative cases are given below, each with its answer.
>>> result("O=C1c2ccccc2C(=O)N1CNc1cccc(NCN2C(=O)c3ccccc3C2=O)c1")
"104 % of control"
>>> result("Nc1ccccc1CCCC(=O)O")
"100 % of control"
>>> result("CN(C)C")
"109 % of control"
>>> result("NC(=O)CNCCS(=O)(=O)O")
"109 % of control"
>>> result("COc1ccc(C=[N+](C)CCc2ccc(OC)c(OC)c2)cc1OC")
"100 % of control"

Query: Please report the recorded T/C for CCOC(=O)CNCc1cccnc1 .
Reply: 117 % of control

Query: Please report the recorded T/C for CC(N)C(=O)NCC(=O)NCC(=O)O (configuration not stated) .
Reply: 95 % of control

Query: Please report the recorded T/C for C(#Cc1ccccc1)COCC1CO1 (configuration not stated) .
Reply: 90 % of control

Query: Please report the recorded T/C for CC(CS(=O)(=O)O)N1CCN(CCO)CC1 (configuration not stated) .
Reply: 100 % of control

====

- Tested on: BDF1 mice, P388 leukemia ip, median survival T/C
- Assay Explanation: NCI In Vivo Anticancer Drug Screen. Data for tumor model P388 Leukemia (intraperitoneal) in B6D2F1 (BDF1) mice
- Test Context: endpoint: median survival time; dose: 100.0 mg/kg/injection; schedule: Q04DX002 (ip); vehicle: saline with Tween-80; higher = longer survival
Inconclusive results and toxic doses are left out.
This section presents compounds with their documented T/C values.

Illustrative cases are given below, each with its answer.
>>> result("O=[Se](=O)(c1ccccc1)c1ccccc1")
"97 % of control"
>>> result("OC1(c2ccncc2)C=CCC1 (stereo unspecified)")
"97 % of control"
>>> result("CSc1nc(N)c2c(C(N)=O)cc(=O)[nH]c2n1")
"101 % of control"
>>> result("Cc1cc(N(C)C)ccc1/C=C/c1ccnc2ccccc12")
"117 % of control"

Query: Provide the documented T/C with BDF1 mice, P388 leukemia ip, median survival T/C as the system for CC1(C)C2CCC1(C)C(Cl)C2 (stereo unspecified)
Reply: 100 % of control

Query: Provide the documented T/C with BDF1 mice, P388 leukemia ip, median survival T/C as the system for CC1(C)Oc2cc3oc(C(=O)O)cc(=O)c3cc2-c2ccc(O)cc21
Reply: 119 % of control
